test system: Escherichia coli TOP10; assay: shrunken log2 fold change of peptide-encoding DNA abundance (4.5 h post-induction vs induction); higher = less antimicrobial activity (less host growth inhibition); conditions: time post-induction: 4.5 h; library: site-saturation at positions 5, 18, 19, 20
OBSERVABLE: shrunken log2 fold change

ITEM SEQUENCE: RRIRRRPPRLPRPRPRPRGVPRP
OBSERVABLE: shrunken log2 fold change
OBSERVED VALUE: 0.816
--
ITEM SEQUENCE: RRIRHRPPRLPRPRPRPTIHPRP
OBSERVABLE: shrunken log2 fold change
OBSERVED VALUE: -0.552
--
ITEM SEQUENCE: RRIRSRPPRLPRPRPRPFDTPRP
OBSERVABLE: shrunken log2 fold change
OBSERVED VALUE: -0.201
--
ITEM SEQUENCE: RRIRARPPRLPRPRPRPWTPPRP
OBSERVABLE: shrunken log2 fold change
OBSERVED VALUE: 0.123
--
ITEM SEQUENCE: RRIRQRPPRLPRPRPRPCHWPRP
OBSERVABLE: shrunken log2 fold change
OBSERVED VALUE: 0.018
--
ITEM SEQUENCE: RRIRPRPPRLPRPRPRPVFVPRP
OBSERVABLE: shrunken log2 fold change
OBSERVED VALUE: 0.0959
--
ITEM SEQUENCE: RRIRVRPPRLPRPRPRPQAIPRP
OBSERVABLE: shrunken log2 fold change
OBSERVED VALUE: -0.0973
--
ITEM SEQUENCE: RRIRWRPPRLPRPRPRPFIQPRP
OBSERVABLE: shrunken log2 fold change
OBSERVED VALUE: -0.437

====

tested on: Escherichia coli TOP10; test: shrunken log2 fold change of peptide-encoding DNA abundance (4.5 h post-induction vs induction); higher = less antimicrobial activity (less host growth inhibition); conditions: time post-induction: 4.5 h; library: site-saturation at positions 5, 18, 19, 20;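 also: peptides expressed intracellularly from a pBAD plasmid library in pooled LB shake-flask culture, induced with 0.3% L-arabinose, DNA abundance read by NGS, three biological replicates, DESeq2 with apeglm shrinkage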

ITEM SEQUENCE: RRIRCRPPRLPRPRPRPITRPRP
shrunken log2 fold change: -0.429

ITEM SEQUENCE: RRIRNRPPRLPRPRPRPFWYPRP
shrunken log2 fold change: 0.0148

ITEM SEQUENCE: RRIRMRPPRLPRPRPRPICAPRP
shrunken log2 fold change: 0.486

ITEM SEQUENCE: RRIRHRPPRLPRPRPRPAHHPRP
shrunken log2 fold change: 0.178

ITEM SEQUENCE: RRIRSRPPRLPRPRPRPTEKPRP
shrunken log2 fold change: 0.0802

ITEM SEQUENCE: RRIRPRPPRLPRPRPRPPPVPRP
shrunken log2 fold change: 0.744

ITEM SEQUENCE: RRIRLRPPRLPRPRPRPWSMPRP
shrunken log2 fold change: 0.202

ITEM SEQUENCE: RRIRLRPPRLPRPRPRPAYKPRP
shrunken log2 fold change: -0.00989

ITEM SEQUENCE: RRIRCRPPRLPRPRPRPKRRPRP
shrunken log2 fold change: 0.0984

ITEM SEQUENCE: RRIRWRPPRLPRPRPRPEPPPRP
shrunken log2 fold change: 0.977

ITEM SEQUENCE: RRIRIRPPRLPRPRPRPPYNPRP
shrunken log2 fold change: -0.854

ITEM SEQUENCE: RRIRMRPPRLPRPRPRPQETPRP
shrunken log2 fold change: -0.00161

ITEM SEQUENCE: RRIRDRPPRLPRPRPRPQAGPRP
shrunken log2 fold change: 0.152

ITEM SEQUENCE: RRIRNRPPRLPRPRPRPFRNPRP
shrunken log2 fold change: -0.515

ITEM SEQUENCE: RRIRDRPPRLPRPRPRPQIPPRP
shrunken log2 fold change: -0.085

ITEM SEQUENCE: RRIRGRPPRLPRPRPRPVVRPRP
shrunken log2 fold change: 0.602

ITEM SEQUENCE: RRIRCRPPRLPRPRPRPMMTPRP
shrunken log2 fold change: 0.00323

ITEM SEQUENCE: RRIRYRPPRLPRPRPRPRAEPRP
shrunken log2 fold change: -0.162

ITEM SEQUENCE: RRIRYRPPRLPRPRPRPGDDPRP
shrunken log2 fold change: -0.286

ITEM SEQUENCE: RRIRCRPPRLPRPRPRPDPNPRP
shrunken log2 fold change: -0.00486

ITEM SEQUENCE: RRIRMRPPRLPRPRPRPTGWPRP
shrunken log2 fold change: 0.687

ITEM SEQUENCE: RRIRARPPRLPRPRPRPSMWPRP
shrunken log2 fold change: 0.45

ITEM SEQUENCE: RRIRKRPPRLPRPRPRPACCPRP
shrunken log2 fold change: 0.192

ITEM SEQUENCE: RRIRFRPPRLPRPRPRPWYSPRP
shrunken log2 fold change: -0.0415

ITEM SEQUENCE: RRIRVRPPRLPRPRPRPSVMPRP
shrunken log2 fold change: -0.15

ITEM SEQUENCE: RRIRFRPPRLPRPRPRPPSMPRP
shrunken log2 fold change: 0.252

ITEM SEQUENCE: RRIRVRPPRLPRPRPRPMILPRP
shrunken log2 fold change: -0.0833

ITEM SEQUENCE: RRIRMRPPRLPRPRPRPKKGPRP
shrunken log2 fold change: 0.364

ITEM SEQUENCE: RRIRTRPPRLPRPRPRPNHHPRP
shrunken log2 fold change: -0.687

ITEM SEQUENCE: RRIRYRPPRLPRPRPRPGHIPRP
shrunken log2 fold change: 0.0162

ITEM SEQUENCE: RRIRHRPPRLPRPRPRPTDGPRP
shrunken log2 fold change: -0.0791

ITEM SEQUENCE: RRIRRRPPRLPRPRPRPPCAPRP
shrunken log2 fold change: 0.667

ITEM SEQUENCE: RRIRGRPPRLPRPRPRPRKIPRP
shrunken log2 fold change: 0.829

ITEM SEQUENCE: RRIRKRPPRLPRPRPRPTRHPRP
shrunken log2 fold change: 0.482

ITEM SEQUENCE: RRIRGRPPRLPRPRPRPPDGPRP
shrunken log2 fold change: 1.99

ITEM SEQUENCE: RRIRWRPPRLPRPRPRPMCCPRP
shrunken log2 fold change: 0.181

ITEM SEQUENCE: RRIRRRPPRLPRPRPRPSEKPRP
shrunken log2 fold change: 0.51

ITEM SEQUENCE: RRIRGRPPRLPRPRPRPQFTPRP
shrunken log2 fold change: 0.104

ITEM SEQUENCE: RRIRMRPPRLPRPRPRPRKNPRP
shrunken log2 fold change: 0.433

ITEM SEQUENCE: RRIRQRPPRLPRPRPRPSWLPRP
shrunken log2 fold change: -0.213

ITEM SEQUENCE: RRIRWRPPRLPRPRPRPPDGPRP
shrunken log2 fold change: 0.784

ITEM SEQUENCE: RRIRNRPPRLPRPRPRPSQEPRP
shrunken log2 fold change: 0.299

ITEM SEQUENCE: RRIRVRPPRLPRPRPRPTTCPRP
shrunken log2 fold change: -0.0091

ITEM SEQUENCE: RRIRPRPPRLPRPRPRPQTHPRP
shrunken log2 fold change: -0.272

ITEM SEQUENCE: RRIRKRPPRLPRPRPRPYDWPRP
shrunken log2 fold change: -0.0468

ITEM SEQUENCE: RRIRHRPPRLPRPRPRPTWTPRP
shrunken log2 fold change: 2.15e-05

ITEM SEQUENCE: RRIRNRPPRLPRPRPRPNSQPRP
shrunken log2 fold change: -0.265

ITEM SEQUENCE: RRIRMRPPRLPRPRPRPNNKPRP
shrunken log2 fold change: -0.183

ITEM SEQUENCE: RRIRWRPPRLPRPRPRPEWNPRP
shrunken log2 fold change: 0.482

ITEM SEQUENCE: RRIRNRPPRLPRPRPRPQSHPRP
shrunken log2 fold change: -0.68

ITEM SEQUENCE: RRIRDRPPRLPRPRPRPTYKPRP
shrunken log2 fold change: -0.529

ITEM SEQUENCE: RRIRGRPPRLPRPRPRPEYDPRP
shrunken log2 fold change: 0.0795

ITEM SEQUENCE: RRIRQRPPRLPRPRPRPAQDPRP
shrunken log2 fold change: 0.226

ITEM SEQUENCE: RRIRPRPPRLPRPRPRPFSFPRP
shrunken log2 fold change: -0.0166

ITEM SEQUENCE: RRIRWRPPRLPRPRPRPNWTPRP
shrunken log2 fold change: 0.0351

ITEM SEQUENCE: RRIRNRPPRLPRPRPRPLASPRP
shrunken log2 fold change: -0.196

ITEM SEQUENCE: RRIRHRPPRLPRPRPRPMMVPRP
shrunken log2 fold change: -0.0274

ITEM SEQUENCE: RRIRQRPPRLPRPRPRPSEGPRP
shrunken log2 fold change: 0.0871

ITEM SEQUENCE: RRIRCRPPRLPRPRPRPPNYPRP
shrunken log2 fold change: -0.376

ITEM SEQUENCE: RRIRGRPPRLPRPRPRPSGNPRP
shrunken log2 fold change: 0.18

ITEM SEQUENCE: RRIRYRPPRLPRPRPRPTQVPRP
shrunken log2 fold change: 0.188

ITEM SEQUENCE: RRIRGRPPRLPRPRPRPERLPRP
shrunken log2 fold change: 0.586

ITEM SEQUENCE: RRIRARPPRLPRPRPRPNAGPRP
shrunken log2 fold change: 0.315
